Each entry below lists one item and its recorded Selectivity value.
Species: Bos taurus
Assay: Inhibition of trypsin, selectivity with respect to thrombin
Field format: numeric only.

Example entries and their recorded answers appear below.
[
  {
    "compound": "CN[C@H](Cc1ccccc1)C(=O)N1CCC[C@H]1C(=O)N[C@@H](CCCN=C(N)N)C(=O)c1nccs1",
    "Selectivity": 0.4
  },
  {
    "compound": "CN[C@H](Cc1ccccc1)C(=O)N1CCC[C@H]1C(=O)N[C@@H](CCCN=C(N)N)C(=O)c1nc2ccccc2o1",
    "Selectivity": 0.8
  },
  {
    "compound": "CN[C@H](Cc1ccccc1)C(=O)N1CCC[C@H]1C(=O)N[C@@H](CCCNC(=N)N)C(=O)c1nc2ccccc2n1C",
    "Selectivity": 36
  },
  {
    "compound": "CN[C@H](Cc1ccccc1)C(=O)N1CCC[C@H]1C(=O)N[C@@H](CCCN=C(N)N)C(=O)c1nc2ccccc2s1",
    "Selectivity": 16
  },
  {
    "compound": "CN[C@H](Cc1ccccc1)C(=O)N1CCC[C@H]1C(=O)N[C@@H](CCCN=C(N)N)C(=O)c1nc2c(s1)CCCC2",
    "Selectivity": 1.3
  }
]

Query: Assign Selectivity to the following record: CN[C@H](Cc1ccccc1)C(=O)N1CCC[C@H]1C(=O)N[C@@H](CCCNC(=N)N)C(=O)c1nccn1C
Result: 88

Query: Give Selectivity for CN[C@H](Cc1ccccc1)C(=O)N1CCC[C@H]1C(=O)N[C@@H](CCCNC(=N)N)C(=O)c1ccccn1
Result: 0.8

Query: Supply measured Selectivity of CN[C@H](Cc1ccccc1)C(=O)N1CCC[C@H]1C(=O)N[C@@H](CCCN=C(N)N)C(=O)C1=NC(=O)C2C=CC=CC2=N1 (stereo not given in full) in your reply.
Result: 0.6

Query: Tell us which Selectivity value is on record for CN[C@H](Cc1ccccc1)C(=O)N1CCC[C@H]1C(=O)N[C@H](C=O)CCCNC(=N)N
Result: 0.39

Query: Give the reported Selectivity for this compound. CN[C@H](Cc1ccccc1)C(=O)N1CCC[C@H]1C(=O)N[C@@H](CCCN=C(N)N)C(=O)c1nc2ccccc2[nH]1
Result: 3.2
